assay: Pharmacokinetic study of dextromethorphan (DM) alone or DM in combination with bupropion, plasma concentrations by LC-MS/MS; conditions: human, in vivo, 60 mg
assay-endpoint: Tmax (h)

INSERT INTO assay_data (molecule, assay_endpoint, unit_label, observed_measurement) VALUES
  ('COc1ccc2c(c1)[C@]13CCCC[C@@H]1[C@H](C2)N(C)CC3 [Dextromethorphan]', 'Tmax', 'h', 2.3);

---

experiment: Pharmacokinetic study of dextromethorphan (DM) alone or DM in combination with bupropion, plasma concentrations by LC-MS/MS; conditions: human, in vivo, 60 mg
assay-endpoint: concentration at 4 h (ng/mL)

INSERT INTO results (compound, observed_measurement) VALUES
  ('COc1ccc2c(c1)[C@]13CCCC[C@@H]1[C@H](C2)N(C)CC3 [Dextromethorphan]', 3.3);

---

experiment: Pharmacokinetic study of dextromethorphan (DM) alone or DM in combination with bupropion, plasma concentrations by LC-MS/MS; conditions: human, in vivo, 60 mg
assay-endpoint: concentration at 24 h (ng/mL)

INSERT INTO results (compound, unit_label, observed_measurement) VALUES
  ('COc1ccc2c(c1)[C@]13CCCC[C@@H]1[C@H](C2)N(C)CC3 [Dextromethorphan]', 'ng/mL', 0.4);

---

experiment: Pharmacokinetic study of dextromethorphan (DM) alone or DM in combination with bupropion, plasma concentrations by LC-MS/MS; conditions: human, in vivo, 60 mg
assay-endpoint: concentration at 0 h (ng/mL)

INSERT INTO assay_data (smiles_string, assay_endpoint, observed_measurement) VALUES
  ('COc1ccc2c(c1)[C@]13CCCC[C@@H]1[C@H](C2)N(C)CC3', 'concentration at 0 h', 1.2);

---

assay: Pharmacokinetic study of dextromethorphan (DM) alone or DM in combination with bupropion, plasma concentrations by LC-MS/MS; details: human, in vivo, 60 mg
assay-endpoint: concentration at 6 h

INSERT INTO assay_data (molecule, observed_measurement) VALUES
  ('COc1ccc2c(c1)[C@]13CCCC[C@@H]1[C@H](C2)N(C)CC3 [Dextromethorphan]', '2.5 ng/mL');

---

tested on: metabolism of dextromethorphan to dextrorphan in human liver microsomes; experiment: Inhibition of the metabolism of dextromethorphan in human liver microsomes; details: human, human liver microsomes, pH 7.4, probe dextromethorphan (5 μM)
assay-endpoint: IC50

INSERT INTO assay_data (compound, target_desc, observed_measurement) VALUES
  ('COCCCC/C(=N\OCCN)c1ccc(C(F)(F)F)cc1 [Fluvoxamine]', 'metabolism of dextromethorphan to dextrorphan in human liver microsomes', '6.5 µM'),
  ('CN(C)CCC[C@@]1(c2ccc(F)cc2)OCc2cc(C#N)ccc21 [Escitalopram]', 'metabolism of dextromethorphan to dextrorphan in human liver microsomes', '17.1 µM'),
  ('CN(C)CC(c1ccc(O)cc1)C1(O)CCCCC1 (centres unmarked) [Desvenlafaxine]', 'metabolism of dextromethorphan to dextrorphan in human liver microsomes', '97.3 µM'),
  ('CC(NC(C)(C)C)C(=O)c1cccc(Cl)c1.Cl (racemic) [Bupropion]', 'metabolism of dextromethorphan to dextrorphan in human liver microsomes', '9.1 µM'),
  ('CN(C)CCCC1(c2ccc(F)cc2)OCc2cc(C#N)ccc21 (centres unmarked) [Citalopram]', 'metabolism of dextromethorphan to dextrorphan in human liver microsomes', '14.1 µM');
